ASSAY_TARGET: T1, human RGMa (human, UniProt Q96B86 48-422, limits assumed)
T1 construct: also called hRGMa; h RGMa
T1 sequence (looked up): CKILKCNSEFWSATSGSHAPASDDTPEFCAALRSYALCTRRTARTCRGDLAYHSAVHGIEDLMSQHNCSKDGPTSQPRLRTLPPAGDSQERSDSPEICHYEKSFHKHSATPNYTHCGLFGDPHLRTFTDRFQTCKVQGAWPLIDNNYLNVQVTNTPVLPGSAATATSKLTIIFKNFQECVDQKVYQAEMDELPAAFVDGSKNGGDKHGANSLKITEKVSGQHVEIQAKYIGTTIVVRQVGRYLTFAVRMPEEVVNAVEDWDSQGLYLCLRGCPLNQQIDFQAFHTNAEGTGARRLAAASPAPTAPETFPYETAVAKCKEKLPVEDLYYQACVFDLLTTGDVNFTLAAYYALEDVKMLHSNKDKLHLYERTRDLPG
ASSAY: BIAcore; Ab captured via anti-hIgG Fc on CM5 chip, antigen injected; 1:1 Langmuir fit
Method: The potency data correlates with the affinity data (see Table 5). The affinity of h5F9.23 affinity matured Abs towards human RGMa, rat RGMa, and human RGMc were determined by BIAcore analysis (Table 5). […] Association and dissociation rates were monitored for 5 and 10 min respectively. […] The equilibrium dissociation constants (KD) were calculated from kinetic rate constants (off rate kd and on rate ka): KD=kd/ka.

BINDER	MEASURE_UNIT	koff
RGMA-h5F9pJP297/pJP299 hIgG1/K mut (antibody, V domains shown, Tested as IgG; also called h5F9.AM9; H5F9AM.9) VH: EVQLVESGGGVVQPGRSLRLSCAASGFTFSNYGMNWVRQAPGKGLEWVAMIYYDSSEKHYADSVKGRFTISRDNSKNTLYLQMNSLRAEDTAVYYCARGTTPDYWGQGTMVTVSS VL: DVVLTQSPLSLPVTLGQPASISCRSSQSLADSDGDTFLHWFQQRPGQSPRLLIYAVSHRFSGVPDRFSGSGSGTDFTLKISRVEAEDVGVYYCFQATHDPVTFGQGTKLEIK	s⁻¹	0.0004
RGMA-h5F9pJP302/pJP303 hIgG1/K mut (antibody, V domains shown, Tested as IgG; also called h5F9.AM11; H5F9AM.11) VH: EVQLVESGGGLVQPGGSLRLSCAASGFTFSNYGMNWVRQAPGKGLEWVSMIYYDSSEKHYADSVKGRFTISRDNSKNTLYLQMNSLRAEDTAVYYCAKGTTPDYWGQGTMVTVSS VL: DVVLTQSPLSLPVTLGQPASISCRSSQSLEDSDGGTFLEWFQQRPGQSPRLLIYDVSSRFSGVPDRFSGSGSGTDFTLKISRVEAEDVGVYYCFQATHDPLSFGQGTKLEIK	s⁻¹	9.9e-05
RGMA-h5F9pJP297/pJP298 hIgG1/K mut (antibody, V domains shown, Tested as IgG; also called h5F9.AM8; H5F9AM.8) VH: EVQLVESGGGLVQPGGSLRLSCAASGFTFSNYGMNWIRQAPGKGLEWIGMIYYDSSEKHYADSVKGRFTISRDNSKNTLYLQMNSLRAEDTAVYYCAKGTTPDYWGQGTMVTVSS VL: DVVLTQSPLSLPVTLGQPASISCRSSQSLEESDGYTFLHWFQQRPGQSPRLLIYEVSTRFSGVPDRFSGSGSGTDFTLKISRVEAEDVGVYYCFQATHDPLTFGQGTKLEIK	s⁻¹	2.7e-05
humanized antibody 5F9.23 (antibody, V domains shown, also called h5F9.23; H5F9.23) VH: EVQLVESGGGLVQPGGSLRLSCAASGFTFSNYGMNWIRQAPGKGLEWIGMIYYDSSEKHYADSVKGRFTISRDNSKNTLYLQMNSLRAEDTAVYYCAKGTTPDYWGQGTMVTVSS VL: DVVLTQSPLSLPVTLGQPASISCRSSQSLEYSDGYTFLEWFQQRPGQSPRLLIYEVSNRFSGVPDRFSGSGSGTDFTLKISRVEAEDVGVYYCFQATHDPLTFGQGTKLEIKR	s⁻¹	0.0022
RGMA-h5F9Vh7a/pJP291 hIgG1/K mut (antibody, V domains shown, Tested as IgG; also called h5F9.AM4; H5F9AM.4) VH: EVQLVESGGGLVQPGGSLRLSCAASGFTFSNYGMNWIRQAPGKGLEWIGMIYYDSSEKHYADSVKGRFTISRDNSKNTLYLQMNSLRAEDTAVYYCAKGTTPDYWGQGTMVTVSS VL: DVVLTQSPLSLPVTLGQPASISCRSSQSLESSDGDTFLEWFQQRPGQSPRLLIYDVSTRFSGVPDRFSGSGSGTDFTLKISRVEAEDVGVYYCFQVTHDPVTFGQGTKLEIK	s⁻¹	2.2e-05
